experiment: S. cerevisiae growth modulation with rapamycin, primary screen, strain BY4716, OD600, 96 h (AID 1091); details: higher = more signal, called active from +8 up or from −8 down; also: test concentration not given here
Assignment: determine reported z-score for the given compounds.
One number for each entry.

// worked examples, z-score included
• [N-]=[N+]=NCc1ccccc1C[C@]1(C(=O)O)N=C(c2ccc(OCCCO)cc2)O[C@H]1c1ccccc1CN=[N+]=[N-] = -1.92
• C=CCC(OC(C)=O)[C@@H]1[C@@H](N(Cc2ccc(-c3cccc(C(F)(F)F)c3)o2)C(=O)c2ccc(C)cc2)c2cc(OCCCO)ccc2N1C(=O)c1ccc(-c2ccccc2)cc1 (some centres not stated) = 0.271
• O=C1OCCC=C[C@H]2OC34C=CCN(c5ccc6ccccc6c5)C(=O)[C@H]3N(CCCCCO)C(=O)[C@@H]4C12 (some centres not stated) = -0.8
• O=C(CS)NCCCCCCNC(=O)[C@@H]1C[C@@H]2C(=O)N3CCC[C@H]3C(=O)N2[C@@H]1c1ccc(O)cc1 = 1.07

// batch mode: one z-score value per listed entry
1. CC(C)C(=C=CC[C@H](O)c1cccc(OCCO)c1)C[C@H](O)COCc1ccccc1
2. C=CCOC(=O)[C@H]1[C@@H]2C(=O)O[C@@H](c3ccccc3)[C@@H](c3ccccc3)N2[C@@H](c2ccc(OCCOC(=O)[C@@H]3C[C@@H]4C(=O)NCC(=O)N4[C@@H]3c3ccc(O)cc3)cc2)[C@]12C(=O)Nc1ccccc12
3. O=C(O)[C@H]1C[C@H]2C(=O)NCC(=O)N2[C@H]1c1ccc(O)cc1

1: -0.623; 2: 1.47; 3: -0.373

* * *

Assignment: determine reported z-score for the given compounds.
experiment: A549 lung cancer cell viability effects, profiling panel, resazurin fluorescence, 24 h, PK04 Diversity Set (AID 1171); settings: higher = more signal, called active from +8 up or from −8 down; also: test concentration not given here
Answers are plain numbers.

// worked examples, z-score included
• COc1ccc([Si](C)(C)[C@@H]2[C@@H](CCn3cc([C@H](O)c4ccccc4)nn3)O[C@]3(C(=O)N(Cc4ccc(N5C(=O)c6cccc7cccc5c67)cc4)c4ccccc43)[C@H]2C)cc1 = -1.92
• CC(C)(C)OC(=O)CC[C@@]1(C(=O)O)N=C(c2ccc(OCCCO)cc2)O[C@@H]1c1ccccc1N=[N+]=[N-] = 0.0421
• Cc1ccc([C@H]2[C@H](C(=O)O)[C@H](Sc3ccccc3)[C@@H](C(C)C)N2S(=O)(=O)c2ccc(C)cc2)cc1 = -0.064

// batch mode: one z-score value per listed entry
1. CC(C)C[C@@H]1NC(=O)[C@@H]2C[C@H](C(=O)NCCCCCC[N+](C)(C)C)[C@H](c3ccc(O)cc3)N2C1=O
2. CCCC[C@@H]1C[C@H]1[C@@H](NC(=O)c1ccc(-c2ccccc2)cc1)c1ccc(-c2ccccc2)cc1
3. O=C1C=CC(=O)[C@@H]2CC(COc3ccccc3)=C3[C@@H](CCc4ccccc4)OB(O)C[C@@H]3[C@H]12

[0.0131, 0.719, -0.108]

Need z-score of Cc1cc(C)cc(N2C(=O)CS(=O)(=O)C2c2cccc([N+](=O)[O-])c2)c1 (configuration not stated) , thanks. -0.913

* * *

Assignment: determine reported z-score for the given compounds.
assay: fission yeast growth modulation, primary screen, strain 972, OD600, 24 h, no modulator (AID 1090);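 also: basal condition with compound alone and no growth modifier present; test concentration not given here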; settings: S. pombe 972 growth, higher = more signal, called active from +8 up or from −8 down
Numbers only.

// worked examples, z-score included
• COCCOC(=O)N1C(=O)[C@@]2(c3cc(C#CCC(C(=O)OC)C(=O)OC)ccc31)[C@H](c1ccccc1OCCO)N1[C@H](c3ccccc3)[C@H](c3ccccc3)OC(=O)[C@H]1[C@@H]2C(N)=O = 0.951
• COCCCNC(=O)[C@@]1(c2ccc([N+](=O)[O-])cc2)CC(=O)N(CC23CC4CC(CC(C4)C2)C3)[C@@H]1c1ccc(CO)cc1 = -0.634
• CCCNC(=O)[C@@]1(c2ccc([N+](=O)[O-])cc2)CC(=O)N(CC23CC4CC(CC(C4)C2)C3)[C@@H]1c1ccc(CO)cc1 = -0.403

Continue with the compound presented below.
Need z-score of C=CCNC(=O)[C@@H]1[C@H]2C(=O)O[C@H](c3ccccc3)[C@H](c3ccccc3)N2[C@H](c2ccccc2OCCO)[C@@]12C(=O)Nc1ccc(C#CC3=CCCCC3)cc12 , thanks. -3.5
